Target: biotinylated labeled human GPC3 protein (produced in-house) (human, UniProt P51654 25-559, limits assumed, biotinylated (Dojindo, Cat. No. LK03); sites not stated)
Assay: ELISA, biotinylated human GPC3 protein
// reported OD450 at 13.33 nM per item
Unit OD450 implied. Number only.

binder	measured.endpoint	measured.result
hAb001H1aL1 (antibody, human IgG1, V domains shown, Humanized F2.169.2; VH H1a + VL L1; expressed as human IgG1) VH: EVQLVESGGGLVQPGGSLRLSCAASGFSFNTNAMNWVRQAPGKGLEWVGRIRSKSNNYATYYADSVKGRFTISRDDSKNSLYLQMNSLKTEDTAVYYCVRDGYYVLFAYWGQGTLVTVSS VL: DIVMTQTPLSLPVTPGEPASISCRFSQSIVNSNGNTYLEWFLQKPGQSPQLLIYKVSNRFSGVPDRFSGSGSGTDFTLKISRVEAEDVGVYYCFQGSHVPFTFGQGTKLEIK	OD450 at 13.33 nM	2.54

Shifting focus to the binder that follows.
*Q* Please give the measured OD450 at 13.33 nM for this binder: hAb005LH3L1 (antibody, human IgG1, V domains shown, Humanized F3.54.12; VH H3 + VL L1; expressed as human IgG1) VH: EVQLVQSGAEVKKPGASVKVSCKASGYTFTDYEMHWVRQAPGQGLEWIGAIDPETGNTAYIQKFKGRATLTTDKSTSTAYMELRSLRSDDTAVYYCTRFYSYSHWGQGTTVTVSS VL: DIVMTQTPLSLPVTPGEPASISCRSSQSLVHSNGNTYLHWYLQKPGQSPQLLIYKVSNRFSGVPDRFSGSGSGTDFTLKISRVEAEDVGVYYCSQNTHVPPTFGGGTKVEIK
*A* 1.07
